Origin of measurements: the supplement of paper PMC11061612

Attribute: Bliss excess
test system: NCI-H2731 (Mesothelioma); assay: Bliss excess, mean over the matrix (fraction); higher = more synergy;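 note: after 72 h of two-drug dosing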

Observe how each entry below is paired with its result.
molecule="COc1cccc(OCCCN)c1-c1cc(Nc2cnc(C#N)cn2)n[nH]1 [Prexasertib] + C[C@@H]1COCCN1C2=NC(=NC(=C2)C3(CC3)[S@](=N)(=O)C)C4=C5C=CNC5=NC=C4 [AZD6738] (first compound max 1 µM, 7x7, partner max 10 µM)" recordedendpoint="Bliss excess" experimentalvalue=-0.0089
molecule="C=CCn1c(=O)c2cnc(Nc3ccc(N4CCN(C)CC4)cc3)nc2n1-c1cccc(C(C)(C)O)n1 [AZD1775] + C[C@@H]1COCCN1C2=NC(=NC(=C2)C3(CC3)[S@](=N)(=O)C)C4=C5C=CNC5=NC=C4 [AZD6738] (first compound max 1 µM, partner max 10 µM)" recordedendpoint="Bliss excess" experimentalvalue=0.0444
molecule="CN(CCO)CC[C@H](CSc1ccccc1)Nc1ccc(S(=O)(=O)NC(=O)c2ccc(N3CCC([C@@H](O)c4ccccc4-c4ccc(Cl)cc4)CC3)cc2)cc1S(=O)(=O)C(F)(F)F [AZD4320] + CS(=O)(=O)CCNCc1ccc(-c2ccc3ncnc(Nc4ccc(OCc5cccc(F)c5)c(Cl)c4)c3c2)o1 [Lapatinib] (first compound max 1 µM, 7x7, partner max 10 µM)" recordedendpoint="Bliss excess" experimentalvalue=-0.0076

Send back NCI-H2731 (Mesothelioma) Bliss excess of C[C@@H]1COCCN1c1cc(C2([S@](C)(=N)=O)CC2)nc(-c2ccnc3[nH]ccc23)n1 [AZD6738] + Nc1ccn([C@@H]2O[C@H](CO)[C@@H](O)C2(F)F)c(=O)n1 [Gemcitabine] (first compound max 10 µM, 7x7, partner max 0.3 µM) only.
0.0371

Send back NCI-H2731 (Mesothelioma) Bliss excess of N#Cc1cnc(Nc2cc(NC[C@H]3CNCCO3)c(C(F)(F)F)cn2)cn1 [SRA737] + O=c1[nH]cc(F)c(=O)[nH]1 [5-Fluorouracil] (first compound max 10 µM, 7x7, partner max 20 µM) only.
-0.0374

Send back NCI-H2731 (Mesothelioma) Bliss excess of CC1(C)CCC(CN2CCN(c3ccc(C(=O)NS(=O)(=O)c4ccc(NCC5CCOCC5)c([N+](=O)[O-])c4)c(Oc4cnc5[nH]ccc5c4)c3)CC2)=C(c2ccc(Cl)cc2)C1 [Venetoclax] + C=CCn1c(=O)c2cnc(Nc3ccc(N4CCN(C)CC4)cc3)nc2n1-c1cccc(C(C)(C)O)n1 [AZD1775] (first compound max 1 µM, partner max 1 µM) only.
-0.0295

Send back NCI-H2731 (Mesothelioma) Bliss excess of CS(=O)(=O)CCNCc1ccc(-c2ccc3ncnc(Nc4ccc(OCc5cccc(F)c5)c(Cl)c4)c3c2)o1 [Lapatinib] + Cn1cnc2c(F)c(Nc3ccc(Br)cc3Cl)c(C(=O)NOCCO)cc21 [Selumetinib] (first compound max 10 µM, 7x7, partner max 10 µM) only.
-0.012
